tgt: T1, NHERF3_4, Q5T2W1
T1 sequence (Q5T2W1 373-468, limits assumed, looked up): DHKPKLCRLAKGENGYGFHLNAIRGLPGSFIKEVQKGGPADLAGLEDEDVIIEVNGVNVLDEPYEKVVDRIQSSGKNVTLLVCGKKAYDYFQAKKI
test_summary: holdup assay
Design: key: below the threshold = too weak to quantify, mostly under pKd 3.1 to 4
test_conditions: plain residues with an end cap or a label only (N-terminal biotin on a linker: ado-ado)

>  <binder>
FHSIKQSTAV [CRHR1, P34998]

>  <pKd>
4.27

$$$$
>  <binder>
KKTPVSRSHL [SLC22A3, O75751]

>  <pKd>
below the threshold

$$$$
>  <binder>
IQISELETNV [SLC1A7, O00341]

>  <pKd>
below the threshold

$$$$
>  <binder>
SRPHTNETSL [MCC, P23508]

>  <pKd>
below the threshold

$$$$
>  <binder>
THHRKIHTRV [ZNF599, Q96NL3]

>  <pKd>
3.55

$$$$
>  <binder>
VKQYADVEGF [HNRNPK, P61978;P61978-2]

>  <pKd>
below the threshold

$$$$
>  <binder>
TFSRRPKTRV [CD226, Q15762]

>  <pKd>
below the threshold

$$$$
>  <binder>
DFKHTKSFII [JAM2, P57087]

>  <pKd>
below the threshold

$$$$
